The reported measurements were obtained from patent US20190031665A1.

Give measured inhibition at 1 µM for each item. Keep answers brief.
- assay.target: human tryptophan 2,3-dioxygenase (hTDO) (Homo sapiens)
- Construct: His tag (N); purchased BPS Bioscience, San Diego, Calif., USA; host or cells: E. coli
- assay.procedure: In-vitro human tryptophan 2,3-dioxygenase (TDO) enzyme assay
- Type: biochemical
- setup.conditions: hTDO enzyme at 1.0 μM concentration

## Task Entry CC1=C(c2ccccc2)C(C[C@@H](O)C2CCCN2C(=O)c2ccccc2)n2cncc21 (stereo partly shown) , system human tryptophan 2,3-dioxygenase (hTDO) (Homo sapiens): what inhibition at 1 µM was measured?
## Result ≤ 50%

## Task Query inhibition at 1 µM on human tryptophan 2,3-dioxygenase (hTDO) (Homo sapiens) for CC1=C(c2ccccc2)C(CC(=O)N2CCC(O)CC2)n2cncc21 (stereo not shown)
## Result ≤ 50%

## Task Please state recorded inhibition at 1 µM (tested on human tryptophan 2,3-dioxygenase (hTDO) (Homo sapiens)) of CC1=C(c2ccccc2)C(CC(O)C2CCN(C(=O)Cc3ccccc3F)CC2)n2cncc21 (stereo not shown)
## Result ≥ 50%

## Task Give the reported inhibition at 1 µM for CC1=C(c2ccccc2)C(CC(=O)c2ccc(N3CCCCC3)cc2)n2cncc21 (stereo not shown) (system: human tryptophan 2,3-dioxygenase (hTDO) (Homo sapiens)).
## Result ≥ 50%

---

Task for the reader: assign each of the following compounds its reported inhibition at 1 µM.
- assay.target: human indoleamine 2,3-dioxygenase 1 (hIDO1) (Homo sapiens, UniProt P14902)
- Construct: His tag (N); purchased BPS Bioscience, San Diego, Calif., USA; host or cells: E. coli
- Sequence (P14902 whole entry): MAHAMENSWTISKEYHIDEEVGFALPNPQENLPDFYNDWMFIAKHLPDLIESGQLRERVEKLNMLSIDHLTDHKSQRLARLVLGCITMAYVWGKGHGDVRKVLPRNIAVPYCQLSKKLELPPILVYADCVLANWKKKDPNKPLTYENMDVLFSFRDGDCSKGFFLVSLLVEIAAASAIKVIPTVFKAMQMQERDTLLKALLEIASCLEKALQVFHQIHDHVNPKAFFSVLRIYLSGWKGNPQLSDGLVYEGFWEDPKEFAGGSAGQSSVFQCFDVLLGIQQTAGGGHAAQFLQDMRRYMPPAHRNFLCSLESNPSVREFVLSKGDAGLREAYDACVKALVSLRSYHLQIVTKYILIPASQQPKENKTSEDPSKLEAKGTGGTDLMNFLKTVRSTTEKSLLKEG
- assay.procedure: In-vitro human indoleamine 2,3-dioxygenase 1 (IDO1) enzyme assay
- Assay type: biochemical
- setup.conditions: hIDO1 enzyme at 1.0 μM concentration

## Task Requested field: inhibition at 1 µM. Item: CCOC(=O)C1CCC([C@@H](O)CC2C(c3ccccc3)=C(C)c3cncn32)CC1 (stereo in doubt)
## Result ≥ 50%

## Task Query (compound): CC1=C(c2ccccc2)C(CC(=O)C2CCC(C(=O)Nc3ccc(Cl)cc3C)CC2)n2cncc21 (centres unmarked) ; field requested: inhibition at 1 µM
## Result ≥ 50%

## Task Endpoint output: inhibition at 1 µM of CC1=C(c2ccccc2)C(CC(F)C2CCCCC2)n2cncc21 (centres unmarked) . Value?
## Result ≥ 50%

## Task Consider the compound shown here: O=C(CC1C(c2ccccc2)=C(c2ccccc2)c2cncn21)C1CCCCC1 (centres unmarked) What is its recorded inhibition at 1 µM?
## Result ≤ 50%

## Task Entry under review: CC1=C(c2ccccc2)C(CC(O)C2CCC(c3ccccc3)CC2)n2cncc21 (centres unmarked) . Reported inhibition at 1 µM?
## Result ≥ 50%

## Task I am curious: what inhibition at 1 µM value has been reported for CC1=C(c2ccccc2)C(CC(=O)C2CC2)n2cncc21 (centres unmarked) ?
## Result ≤ 50%

## Task Can you share its inhibition at 1 µM? I mean this compound: CC1=C(c2ccccc2)C(CC(=O)c2ccc(OCc3ccccc3)cc2)n2cncc21 (centres unmarked)
## Result ≥ 50%

## Task Dear colleague, I am looking for the recorded inhibition at 1 µM of the following compound: CC1=C(c2ccccc2)C(CC(=O)c2cccc(C(F)(F)F)c2)n2cncc21 (centres unmarked)
## Result ≥ 50%

---

- assay.target: human tryptophan 2,3-dioxygenase (hTDO) (Homo sapiens, UniProt P48775)
- Construct: His tag (N); purchased BPS Bioscience, San Diego, Calif., USA; host or cells: E. coli
- Sequence (P48775 whole entry): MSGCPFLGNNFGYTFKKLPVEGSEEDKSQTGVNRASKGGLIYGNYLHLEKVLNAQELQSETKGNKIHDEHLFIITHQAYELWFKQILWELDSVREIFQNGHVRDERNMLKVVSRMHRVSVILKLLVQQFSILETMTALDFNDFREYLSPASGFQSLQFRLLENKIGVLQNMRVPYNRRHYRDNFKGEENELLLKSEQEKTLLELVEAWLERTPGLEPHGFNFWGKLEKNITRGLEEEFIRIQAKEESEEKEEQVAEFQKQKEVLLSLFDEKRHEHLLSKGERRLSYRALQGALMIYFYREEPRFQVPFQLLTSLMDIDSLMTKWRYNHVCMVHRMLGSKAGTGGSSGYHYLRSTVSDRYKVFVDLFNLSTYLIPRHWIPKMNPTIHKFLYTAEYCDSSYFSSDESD
- assay.procedure: In-vitro human tryptophan 2,3-dioxygenase (TDO) enzyme assay
- Assay type: biochemical
- setup.conditions: hTDO enzyme at 1.0 μM concentration
measure.name: inhibition at 1 µM

## Task What value of measured inhibition at 1 µM is listed for CC1=C(c2ccccc2)C(CC(O)C2CCN(C(=O)c3ccccc3)CC2)n2cncc21 (centres unmarked) ?
## Result ≤ 50%

## Task Name the reported inhibition at 1 µM value associated with the molecule CC1=C(c2ccccc2)C(CC(=O)C2CCC(C(=O)Nc3ccncc3)CC2)n2cncc21 (centres unmarked)
## Result ≥ 50%

## Task Given the entry CC1=C(c2ccccc2)C(CC(O)C2CCN(C(=O)c3ccccn3)CC2)n2cncc21 (centres unmarked) [Example 152] , report its measured inhibition at 1 µM.
## Result ≤ 50%

## Task Recorded inhibition at 1 µM for CC1=C(c2ccccc2)C(CC(=O)C2CCN(S(=O)(=O)c3ccccc3)CC2)n2cncc21 (centres unmarked) , please?
## Result ≥ 50%

## Task Quick one: inhibition at 1 µM of CC1=C(c2ccccc2)C(CC(=O)C2CCC(C(=O)NC3CCCCC3)CC2)n2cncc21 (centres unmarked) ?
## Result ≥ 50%

## Task Fill blank: measured inhibition at 1 µM of the molecule CNC(=O)C1CCC(C(=O)CC2C(c3ccccc3)=C(C)c3cncn32)CC1 (centres unmarked) is ____.
## Result ≥ 50%

## Task Quick one: inhibition at 1 µM of CC1=C(c2ccccc2)C(CC(O)C2CCC(O)CC2)n2cncc21 (single isomer, unassigned) [Example 121] ?
## Result ≤ 50%

## Task Fill in: inhibition at 1 µM of CC1=C(c2ccccc2)C(CC(=O)C2CCN(C(=O)C3CCCCC3)CC2)n2cncc21 (centres unmarked) is ___
## Result ≤ 50%
